TESTED_ON: 5-hydroxytryptamine receptor 2A (Homo sapiens, UniProt P28223)
Sequence (P28223 whole entry): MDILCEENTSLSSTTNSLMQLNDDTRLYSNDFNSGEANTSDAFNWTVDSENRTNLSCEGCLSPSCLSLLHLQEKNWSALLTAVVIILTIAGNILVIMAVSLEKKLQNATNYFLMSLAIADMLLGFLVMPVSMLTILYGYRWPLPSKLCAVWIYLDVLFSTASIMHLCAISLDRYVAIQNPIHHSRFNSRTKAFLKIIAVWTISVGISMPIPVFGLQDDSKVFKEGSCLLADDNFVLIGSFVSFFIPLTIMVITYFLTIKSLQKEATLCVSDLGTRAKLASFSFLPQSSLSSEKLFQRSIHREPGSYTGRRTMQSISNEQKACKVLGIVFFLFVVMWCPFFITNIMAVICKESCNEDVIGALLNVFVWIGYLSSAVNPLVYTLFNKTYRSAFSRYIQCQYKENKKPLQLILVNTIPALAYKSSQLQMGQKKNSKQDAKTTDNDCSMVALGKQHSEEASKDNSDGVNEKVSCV
EXPERIMENTAL_DETAILS: Displacement of [3H]ketanserin from human 5-hydroxytryptamine 2A receptor
Strictly below 1000 nM in Ki: YES. Otherwise: NO.

Observe how each entry below is paired with its result.
c1ccc2c(c1)nc1n2CCNC1 :: NO
CN(C)CCn1ccc2ccccc21 :: YES
COc1ccc2ccn(CCN(C)C)c2c1 :: NO
COc1c2n(c3ccc(Cl)cc13)CCNC2 :: YES
COc1ccc2c(c1)cc1n2CCNC1 :: NO

Turning now to a further compound:
Query :: Dear colleague, could you confirm whether Ki of Clc1ccc2c(c1)cc1n2CCNC1 falls below 1000 nM? Thanks.
Result :: NO

----------
TESTED_ON: 5-hydroxytryptamine receptor 2A (Homo sapiens)
EXPERIMENTAL_DETAILS: Tested for binding affinity towards human 5-hydroxytryptamine 2A receptor using [3H]5-HT as radioligand
ASSAY_ENDPOINT: pKi
One number for each entry, as −log10 of the molar value.

Query :: Which pKi reading was recorded for the molecule C[C@H](N)Cn1ccc2cc(F)c(F)cc21 ?
Result :: 7.92

----------
TESTED_ON: 5-hydroxytryptamine receptor 2C (Homo sapiens)
Sequence (P28335 whole entry): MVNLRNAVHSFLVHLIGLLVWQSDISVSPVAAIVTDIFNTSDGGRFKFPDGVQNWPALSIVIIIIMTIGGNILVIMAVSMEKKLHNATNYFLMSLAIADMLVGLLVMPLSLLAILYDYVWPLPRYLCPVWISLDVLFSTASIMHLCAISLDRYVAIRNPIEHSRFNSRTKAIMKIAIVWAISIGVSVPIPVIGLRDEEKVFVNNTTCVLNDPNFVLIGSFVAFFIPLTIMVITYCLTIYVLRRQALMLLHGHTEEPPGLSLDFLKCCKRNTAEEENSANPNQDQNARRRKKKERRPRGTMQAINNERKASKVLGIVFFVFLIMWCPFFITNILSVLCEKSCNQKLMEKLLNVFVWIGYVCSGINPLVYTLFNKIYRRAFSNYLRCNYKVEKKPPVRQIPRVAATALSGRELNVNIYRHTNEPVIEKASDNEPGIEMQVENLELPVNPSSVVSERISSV
EXPERIMENTAL_DETAILS: Tested for binding affinity towards human 5-hydroxytryptamine 2C receptor using [3H]5-HT as radioligand
ASSAY_ENDPOINT: pKi
Answers are plain numbers, as −log10 of the molar value.

Query :: Which pKi reading was recorded for the compound C[C@H](N)Cn1ccc2cc(F)c(F)cc21 ?
Result :: 8.42

----------
TESTED_ON: 5-hydroxytryptamine receptor 2C (Homo sapiens, UniProt P28335)
Sequence (P28335 whole entry): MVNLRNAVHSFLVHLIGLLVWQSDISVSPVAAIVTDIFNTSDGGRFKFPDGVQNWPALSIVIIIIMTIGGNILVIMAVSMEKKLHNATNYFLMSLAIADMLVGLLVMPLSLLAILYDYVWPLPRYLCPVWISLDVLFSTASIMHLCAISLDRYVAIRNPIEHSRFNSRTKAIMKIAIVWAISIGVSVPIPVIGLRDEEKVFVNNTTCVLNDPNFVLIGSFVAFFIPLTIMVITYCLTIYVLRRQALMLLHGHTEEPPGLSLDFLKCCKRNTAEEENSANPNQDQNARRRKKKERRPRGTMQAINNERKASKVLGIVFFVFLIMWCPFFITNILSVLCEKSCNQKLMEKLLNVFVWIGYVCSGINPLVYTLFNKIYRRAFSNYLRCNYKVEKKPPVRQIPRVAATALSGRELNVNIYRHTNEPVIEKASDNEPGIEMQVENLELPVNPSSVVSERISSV
EXPERIMENTAL_DETAILS: Binding affinity towards human 5-hydroxytryptamine 2C receptor.
For each record, write down the corresponding pKi.
Answers are plain numbers, as −log10 of the molar value.

CN(C)CCn1ccc2cc(F)c(F)cc21 :: 6.52
COc1ccc2c(c1)cc1n2CCNC1 :: 5.00
Clc1ccc2cc3n(c2c1)CCNC3 :: 6.25
COc1c2n(c3ccc(Cl)cc13)CCNC2 :: 6.48
C[C@H](N)Cn1ccc2cc(F)c(F)cc21 :: 7.07

# return pKi for each item in the list
1. c1ccc2c(c1)cc1n2CCNC1
2. CN(C)CCn1ccc2ccccc21
3. Clc1ccc2c(c1)cc1n2CCNC1
4. Clc1cccc2cc3n(c12)CCNC3
5. COc1ccc2cc3n(c2c1)CCNC3
6. COc1cccc2cc3n(c12)CCNC3
7. COc1ccc2ccn(CCN(C)C)c2c1

Result ::
1: 5.32; 2: 6.14; 3: 5.84; 4: 6.28; 5: 5.29; 6: 5.70; 7: 6.31

# return pKi for each item in the list
1. CC(N)Cc1c[nH]c2ccc3ccccc3c12 (configuration not stated)
2. CC(N)Cn1ccc2ccc3ccccc3c21 (configuration not stated)

Result ::
8.05
7.38

----------
TESTED_ON: 5-hydroxytryptamine receptor 2A (Homo sapiens)
EXPERIMENTAL_DETAILS: Tested for binding affinity towards 5-hydroxytryptamine 2A receptor
ASSAY_ENDPOINT: Ki

CC(N)Cc1c[nH]c2ccc3ccccc3c12 (stereo not drawn) :: 3 nM
CC(CN)n1ccc2ccc3ccccc3c21 (stereo not drawn) :: 4300 nM

Query :: Which Ki reading was recorded for the compound CC(N)Cn1ccc2ccc3ccccc3c21 (stereo not drawn) ?
Result :: 38 nM

----------
TESTED_ON: 5-hydroxytryptamine receptor 2A (Homo sapiens, UniProt P28223)
EXPERIMENTAL_DETAILS: Displacement of [3H]DOB from human 5-hydroxytryptamine 2A receptor
Strictly below 300 nM in Ki: True. Otherwise: False.

Observe how each entry below is paired with its result.
Clc1ccc2cc3n(c2c1)CCNC3 :: True
Clc1ccc2c(c1)cc1n2CCNC1 :: False
COc1ccc2c(ccn2CCN(C)C)c1 :: False
CN(C)CCn1ccc2cc(F)c(F)cc21 :: True
Clc1cccc2cc3n(c12)CCNC3 :: False

Query :: Dear colleague, could you confirm whether Ki of c1ccc2c(c1)nc1n2CCNC1 falls below 300 nM? Thanks.
Result :: False

Query :: Dear colleague, could you confirm whether Ki of c1ccc2c(c1)cc1n2CCNC1 falls below 300 nM? Thanks.
Result :: False

Query :: Dear colleague, could you confirm whether Ki of CN(C)CCn1ccc2ccccc21 falls below 300 nM? Thanks.
Result :: False

----------
TESTED_ON: 5-hydroxytryptamine receptor 2A (Rattus norvegicus)
Sequence (P14842 whole entry): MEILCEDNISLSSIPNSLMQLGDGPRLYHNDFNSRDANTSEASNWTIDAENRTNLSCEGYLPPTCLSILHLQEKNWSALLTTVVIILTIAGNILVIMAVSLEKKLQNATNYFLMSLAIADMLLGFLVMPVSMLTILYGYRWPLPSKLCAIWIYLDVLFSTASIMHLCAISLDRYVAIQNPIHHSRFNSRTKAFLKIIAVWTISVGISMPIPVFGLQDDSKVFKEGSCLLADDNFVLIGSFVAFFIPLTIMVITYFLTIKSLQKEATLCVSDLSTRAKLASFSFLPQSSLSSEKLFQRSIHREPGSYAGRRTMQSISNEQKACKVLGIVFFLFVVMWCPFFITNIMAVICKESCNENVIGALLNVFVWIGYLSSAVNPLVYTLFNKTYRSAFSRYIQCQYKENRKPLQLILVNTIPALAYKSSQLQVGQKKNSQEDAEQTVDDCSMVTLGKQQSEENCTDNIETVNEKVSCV
EXPERIMENTAL_DETAILS: Tested for binding affinity towards rat 5-hydroxytryptamine 2A receptor using [3H]DOB as radioligand
ASSAY_ENDPOINT: Ki (nM)
Numbers only, in nM.

Query :: Which Ki reading was recorded for the molecule C[C@H](N)Cn1ccc2cc(F)c(F)cc21 ?
Result :: 15

----------
TESTED_ON: 5-hydroxytryptamine receptor 2A (Homo sapiens)
EXPERIMENTAL_DETAILS: Displacement of [3H]DOB from human 5-hydroxytryptamine 2A receptor
For each record, write down the corresponding Ki.
Numbers only, in nM.

# example entries with known answers
COc1ccc2cc3n(c2c1)CCNC3 :: 1300
COc1cccc2cc3n(c12)CCNC3 :: 300
COc1ccc2c(c1)cc1n2CCNC1 :: 930

// below: Ki requested for another molecule
Query :: Which Ki reading was recorded for the molecule COc1c2n(c3ccc(Cl)cc13)CCNC2 ?
Result :: 60

----------
TESTED_ON: 5-hydroxytryptamine receptor 2C (Homo sapiens, UniProt P28335)
EXPERIMENTAL_DETAILS: Tested for binding affinity towards human 5-hydroxytryptamine 2C receptor using [3H]DOB as radioligand
ASSAY_ENDPOINT: pKi
Give bare numbers, as −log10 of the molar value.

Query :: Which pKi reading was recorded for the molecule C[C@H](N)Cn1ccc2cc(F)c(F)cc21 ?
Result :: 8.41

----------
TESTED_ON: 5-hydroxytryptamine receptor 2A (Homo sapiens, UniProt P28223)
EXPERIMENTAL_DETAILS: Tested for binding affinity towards human 5-hydroxytryptamine 2A receptor using [3H]DOB as radioligand
ASSAY_ENDPOINT: Ki (nM)
Answers are plain numbers, in nM.

Query :: Please state recorded Ki (tested on 5-hydroxytryptamine receptor 2A (Homo sapiens, UniProt P28223)) of C[C@H](N)Cn1ccc2cc(F)c(F)cc21
Result :: 39

----------
TESTED_ON: 5-hydroxytryptamine receptor 2A (Homo sapiens)
EXPERIMENTAL_DETAILS: Displacement of [3H]ketanserin from human 5-hydroxytryptamine 2A receptor
ASSAY_ENDPOINT: Ki (nM)
One number for each entry, in nM.

Clc1ccc2cc3n(c2c1)CCNC3 :: 58
Cc1c2n(c3ccc(Cl)cc13)CCNC2 :: 1250
c1ccc2c(c1)cc1n2CCNC1 :: 1040
Clc1cccc2cc3n(c12)CCNC3 :: 630
COc1cccc2cc3n(c12)CCNC3 :: 1000

# return Ki for each item in the list
1. CN(C)CCn1ccc2cc(F)c(F)cc21
2. COc1ccc2cc3n(c2c1)CCNC3

Result ::
1: 640; 2: 5190
